experimental_details: self-splicing fitness, log relative to wild type (ln ratio); higher = more splicing; Tetrahymena group I intron in knt gene, E. coli kanamycin selection, DiMSum; sequences stand for … in CUCUCU…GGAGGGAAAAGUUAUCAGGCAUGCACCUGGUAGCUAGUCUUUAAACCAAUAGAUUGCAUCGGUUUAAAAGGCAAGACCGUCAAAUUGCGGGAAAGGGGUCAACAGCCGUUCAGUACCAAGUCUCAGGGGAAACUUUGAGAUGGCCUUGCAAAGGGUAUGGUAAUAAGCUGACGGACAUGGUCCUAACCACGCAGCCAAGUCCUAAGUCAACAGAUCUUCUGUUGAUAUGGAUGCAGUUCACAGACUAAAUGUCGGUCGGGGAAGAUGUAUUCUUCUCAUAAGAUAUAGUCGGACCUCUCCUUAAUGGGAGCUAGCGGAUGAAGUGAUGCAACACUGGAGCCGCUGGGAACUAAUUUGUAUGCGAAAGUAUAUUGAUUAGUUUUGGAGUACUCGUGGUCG;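 note: selection with 25 µg/mL kanamycin versus none on LB agar overnight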
run_parameters: 37 °C
Outcome: 1 (yes) for self-splicing fitness (ln) of at least -2; 0 (no) for anything lower.

[
  {
    "sequence_input": "UGCCAGCAAUAUUACGGCGU",
    "group": "0 (no)"
  },
  {
    "sequence_input": "AUUGAGCAAUAUUACGAUUG",
    "group": "0 (no)"
  },
  {
    "sequence_input": "CUUAAGCAAUAUUACGUCCG",
    "group": "1 (yes)"
  }
]

Please indicate if the recorded self-splicing fitness (ln) for CAAUAGCAAUAUUACGGAUU meets or exceeds -2.
0 (no)

Is the recorded value of self-splicing fitness (ln) equal to or greater than -2 for this sequence? GGUUAGCAAUAUUACGAGUG
1 (yes)

Evaluate CACUAGCAAUAUUACGCCGC : self-splicing fitness (ln) at minimum -2?
0 (no)

Record UCUAAGCAAUAUUACGACUC ; criterion: self-splicing fitness (ln) no lower than -2. Met?
0 (no)

Identify whether the reported self-splicing fitness (ln) of the following sequence is -2 or greater: ACUUAGCAAUAUUACGCCCG
1 (yes)
